Source of measurements: the NIST ThermoML archive (doi:10.1021/je800925v)

details: 298.15 K; Liquid
Here the recorded mass density is given for each entry.
testReadout: mass density (kg/m3)

CCCCCCCCCC [decane] :: 727.2
CCCCCCCC [octane] :: 701.6
CCCCCC [hexane] :: 655.3
CCO [ethanol] :: 785.9

* * *

In this section, each of the compounds is paired with its reported viscosity.
conditions: 293.15 K; Liquid
testReadout: viscosity (mPa·s)

CCCCCCCC :: 0.5374
CCCCCCCCCC :: 0.9133
CCCCCC :: 0.2979
CCO :: 1.21
